Consider the following compounds and their measured In Vitro FAAH activity, 100 nM readings.
- SYSTEM: FAAH (Rattus norvegicus)
- Construct: Frozen brains (without cerebellum) from Wistar rats were used; from tissue; host or cells: Wistar rat brain (without cerebellum), washed membrane pellets
- Sequence (P97612 whole entry): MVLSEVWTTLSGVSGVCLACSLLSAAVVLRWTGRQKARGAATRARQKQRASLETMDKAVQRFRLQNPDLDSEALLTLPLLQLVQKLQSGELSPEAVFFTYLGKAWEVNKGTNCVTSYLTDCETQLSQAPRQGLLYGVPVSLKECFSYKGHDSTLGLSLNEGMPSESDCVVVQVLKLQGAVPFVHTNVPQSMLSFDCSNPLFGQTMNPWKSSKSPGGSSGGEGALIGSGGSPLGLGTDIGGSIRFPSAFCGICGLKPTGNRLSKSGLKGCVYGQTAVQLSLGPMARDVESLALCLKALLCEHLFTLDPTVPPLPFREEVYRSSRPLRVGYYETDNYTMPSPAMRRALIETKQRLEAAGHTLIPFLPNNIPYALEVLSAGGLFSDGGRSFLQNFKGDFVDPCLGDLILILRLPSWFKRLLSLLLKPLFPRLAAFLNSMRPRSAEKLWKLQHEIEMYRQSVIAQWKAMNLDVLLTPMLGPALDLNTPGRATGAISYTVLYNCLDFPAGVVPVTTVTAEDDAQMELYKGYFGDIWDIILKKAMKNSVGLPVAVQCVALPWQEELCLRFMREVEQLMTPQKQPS
- ASSAY_PROTOCOL: In vitro FAAH activity in rat brain membranes, 3H-AEA substrate, % of control
- Assay type: biochemical, Wistar rats
- STUDY_CONDITIONS: 100 nM test compound, low value = strong inhibitor

// known answers, use as guide
COMPOUND	ATTRIBUTE_MEASURED	RESULT
O=C(N1CCOCC1)n1cnc(-c2ccc(N3CCN(Cc4ccccc4)CC3)cc2)n1 [Compound 133]	In Vitro FAAH activity, 100 nM	90.7 % of control
N#Cc1ccc(Oc2ccc(-c3ncn(C(=O)N4CCOCC4)n3)cc2)cc1 [Compound 141]	In Vitro FAAH activity, 100 nM	15.9 % of control
COc1cc(-c2cn(C(=O)N3COCC3(C)C)cn2)ccc1O [Compound 228]	In Vitro FAAH activity, 100 nM	78.1 % of control
CN(C(=O)n1cnc(-c2cccc(-c3cccc(F)c3)c2)c1)C1CCCCC1 [Compound 246]	In Vitro FAAH activity, 100 nM	2.9 % of control
O=C(N1CCCCCC1)n1nnc2ccccc21 [Compound 172]	In Vitro FAAH activity, 100 nM	0.3 % of control
O=C(N1CCOCC1)n1ccc2cc(O)ccc21 [Compound 52]	In Vitro FAAH activity, 100 nM	102.7 % of control
CC1(C)COCN1C(=O)n1cnc2ccccc21 [Compound 219]	In Vitro FAAH activity, 100 nM	111.6 % of control
CN(C(=O)n1cnc(-c2ccc(OCCN3CCOCC3)cc2)c1)c1ccccc1.Cl [Compound 230]	In Vitro FAAH activity, 100 nM	96.1 % of control

Input CN(C(=O)n1cnc(-c2ccc(Cl)cc2)n1)c1ccccc1 [Compound 67] . Output In Vitro FAAH activity, 100 nM: 61 % of control

Data point: CN(C(=O)n1cnc(-c2ccccc2F)c1)c1ccccc1 [Compound 30] ; In Vitro FAAH activity, 100 nM = 72.5 % of control

Summary for this compound, O=C(N1CCC(Oc2ccc(OCc3ccccc3)cc2)CC1)n1nnc2ccccc21 [Compound 164] : In Vitro FAAH activity, 100 nM is 0.3 % of control

// In Vitro FAAH activity, 100 nM lookup, compound = O=C(N1CCOCC1)n1cnc(-c2ccccc2)n1 [Compound 73] , result: 85.8 % of control

Reported In Vitro FAAH activity, 100 nM of CC1(C)COCN1C(=O)n1cnc(-c2ccc(Oc3ccc(C(N)=O)cc3)cc2)n1 [Compound 187] : 92.8 % of control

// CN(C(=O)n1nnc2ccccc21)C1CCC2(CC1)OCC(C)(C)CO2 [Compound 143] : In Vitro FAAH activity, 100 nM value = 2.5 % of control

Looking up CN(Cc1ccccc1)C(=O)n1nnc2ccccc21 [Compound 53] , I see its In Vitro FAAH activity, 100 nM listed as 0 % of control

# compound CN(C(=O)n1nnc2cc(Cl)ccc21)c1ccccc1 [Compound 33] ; its In Vitro FAAH activity, 100 nM = 6.2 % of control

In Vitro FAAH activity, 100 nM recorded for this compound, CN(C(=O)n1nnc2ccc(O)cc21)C1CCCCC1 [Compound 242] , is 0 % of control

Looking up CN(C(=O)n1nnc2ccccc21)c1ccccc1 [Compound 34] , I see its In Vitro FAAH activity, 100 nM listed as 0.6 % of control
